Experiment: Metabolic stability in mouse liver microsomes assessed as half life in presence of NADPH by LC-MS/MS analysis
Assay type: ADME, Microsome
experimentalReadout: half-life

Data request: Fill in reported half-life for this entry: `COc1cc2nc(C)nc(N[C@H](C)c3cc(N)cc(C(F)(F)F)c3)c2cc1O[C@H]1CCOC1`
Data returned: 10.8 min

Data request: Fill in reported half-life for this entry: `Cc1nc(N[C@H](C)c2cccc(C(F)F)c2F)c2cc3c(cc2n1)OC[C@H]1CN(C(=O)[C@H]2CCOC2)CCN31`
Data returned: 26.2 min

----------
Assay: MRT in ICR mouse at 20 mg/kg, po by LC-MS/MS analysis
Type: ADME, organism-based
Details: in vivo
experimentalReadout: MRT (h)
Give the quantity in h, number only.

These recorded examples may help you get a feel for the data.
COc1cc2nc(C)nc(N[C@H](C)c3cc(N)cc(C(F)(F)F)c3)c2cc1O[C@H]1CCOC1; 2.98
Cc1nc(N[C@H](C)c2cccc(C(F)F)c2F)c2cc3c(cc2n1)OC[C@H]1CN(C(=O)C2COC2)CCN31; 4.58
Cc1nc(N[C@H](C)c2cccc(C(F)F)c2F)c2cc3c(cc2n1)OC[C@H]1CN(C(=O)[C@H]2CCOC2)CCN31; 4.19
Cc1nc(N[C@H](C)c2cccc(C(F)F)c2F)c2cc3c(cc2n1)OC[C@H]1CN(C(=O)C2(F)CC2)CCN31; 2.59
Cc1nc(N[C@H](C)c2cccc(C(F)F)c2F)c2cc3c(cc2n1)OC[C@H]1CN(C(=O)[C@@H]2C[C@H]2F)CCN31; 4.08
Cc1nc(N[C@H](C)c2cccc(C(F)F)c2F)c2cc3c(cc2n1)OC[C@H]1CN(C(=O)[C@@H]2CCOC2)CCN31; 9.65

Data request: Fill in reported MRT for this entry: `Cc1nc(N[C@H](C)c2cccc(C(F)F)c2F)c2cc3c(cc2n1)OC[C@H]1CN(C(=O)C2CCOCC2)CCN31`
Data returned: 2.46

Data request: Fill in reported MRT for this entry: `COCCC(=O)N1CCN2c3cc4c(N[C@H](C)c5cccc(C(F)F)c5F)nc(C)nc4cc3OC[C@H]2C1`
Data returned: 3.45

Data request: Fill in reported MRT for this entry: `Cc1nc(N[C@H](C)c2cccc(C(F)F)c2F)c2cc3c(cc2n1)OC[C@H]1CN(C(=O)NC2CC2)CCN31`
Data returned: 4.36

Data request: Fill in reported MRT for this entry: `CC(=O)N1CCN2c3cc4c(N[C@H](C)c5cccc(C(F)F)c5F)nc(C)nc4cc3OC[C@H]2C1`
Data returned: 1.93

Data request: Fill in reported MRT for this entry: `Cc1nc(N[C@H](C)c2cccc(C(F)F)c2F)c2cc3c(cc2n1)OC[C@H]1CN(C(=O)N(C)C)CCN31`
Data returned: 4.2

Data request: Fill in reported MRT for this entry: `Cc1nc(N[C@H](C)c2cccc(C(F)F)c2F)c2cc3c(cc2n1)OC[C@H]1CN(C(=O)C2(C#N)CC2)CCN31`
Data returned: 4.43

Data request: Fill in reported MRT for this entry: Cc1nc(N[C@H](C)c2cccc(C(F)F)c2F)c2cc3c(cc2n1)OC[C@H]1CN(C(=O)C2CCO2)CCN31 (stereo partly drawn)
Data returned: 4.55
